target: Calpain (Calpain-1) (Homo sapiens); experiment: in vitro fluorescence-based protease inhibition assay, calpain; format: biochemical; settings: Table 4, calpain inhibitors
Sequence (P07384 whole entry): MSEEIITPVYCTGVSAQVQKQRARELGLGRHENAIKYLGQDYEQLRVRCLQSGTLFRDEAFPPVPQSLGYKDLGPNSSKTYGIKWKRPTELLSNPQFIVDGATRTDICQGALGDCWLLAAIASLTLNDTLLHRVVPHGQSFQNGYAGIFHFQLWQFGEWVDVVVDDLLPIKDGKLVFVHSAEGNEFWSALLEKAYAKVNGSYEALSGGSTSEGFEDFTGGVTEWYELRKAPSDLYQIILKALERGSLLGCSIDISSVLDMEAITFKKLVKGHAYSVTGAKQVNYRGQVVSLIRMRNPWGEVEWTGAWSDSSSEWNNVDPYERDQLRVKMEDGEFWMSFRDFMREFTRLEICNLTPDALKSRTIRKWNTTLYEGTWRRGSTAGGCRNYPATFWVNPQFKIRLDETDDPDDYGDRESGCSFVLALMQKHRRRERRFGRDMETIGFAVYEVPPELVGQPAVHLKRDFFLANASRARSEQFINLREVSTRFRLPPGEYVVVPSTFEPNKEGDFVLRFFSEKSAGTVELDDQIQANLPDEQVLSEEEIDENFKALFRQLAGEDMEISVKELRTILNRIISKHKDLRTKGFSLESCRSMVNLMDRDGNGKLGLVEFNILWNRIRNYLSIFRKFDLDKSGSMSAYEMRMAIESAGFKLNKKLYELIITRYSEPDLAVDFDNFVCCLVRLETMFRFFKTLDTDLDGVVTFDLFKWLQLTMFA
Sequence (P04632 whole entry partner): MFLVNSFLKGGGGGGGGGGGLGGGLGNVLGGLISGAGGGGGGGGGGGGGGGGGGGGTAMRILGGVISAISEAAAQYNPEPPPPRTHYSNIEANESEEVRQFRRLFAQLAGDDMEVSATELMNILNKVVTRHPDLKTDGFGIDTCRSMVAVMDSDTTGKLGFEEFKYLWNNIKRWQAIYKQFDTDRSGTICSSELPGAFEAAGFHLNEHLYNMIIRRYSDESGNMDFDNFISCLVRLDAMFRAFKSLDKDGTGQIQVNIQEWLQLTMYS
Starred links: 1 amine or outer side, 2 acyl side, 3 side chain; linkers in the order of their positions; H or OH if unused. Positions of bridges follow the written chain, without caps; N, C: chain ends. Residues, ends and D or L forms follow the SMILES beside them. mXylylene = c1cc(C[*:1])cc(C[*:2])c1
Attribute measured: pKi
When answering, recall that pKi equals minus log10 of the concentration in mol/L, and write that number alone.

Sure, the documented pKi for CC[C@H](C)[C@H](N)C(=O)N1CCC[C@H]1C(=O)N1CCC[C@H]1C(=O)N[C@@H](CCCCN)C(=O)N[C@@H](Cc1ccc(O)cc1)C(=O)N[C@H]1CSCc2cccc(c2)CSC[C@@H](C(=O)O)NC(=O)[C@H](CC(C)C)NC(=O)[C@H](CC(C)C)NC(=O)[C@H](C)NC1=O [compound 84] (H-IPPKYCALLC-OH; linker 6-10 via mXylylene; N-terminus and C-terminus assumed) is 4.54

Data origin, for the record: patent US9670250B2
